protocolDescription: Cytotoxicity against human HepG2 cells assessed as reduction in cell viability after 40 hrs by Celltiter-Glo assay
measurementParameters: hepg2
Could you mark each record TRUE if its IC50 at 40 h falls strictly under 20 µM, and FALSE if it equals or exceeds it?

Record `Cn1c(NCCc2ccc(Oc3ccc(Cl)cn3)cc2)nc2cc(Cl)ccc2c1=O` : is its IC50 at 40 h strictly below 20 µM?
TRUE

Record `Cn1c(NCCc2ccc(-c3ncccn3)cc2)nc2cc(Cl)ccc2c1=O` : is its IC50 at 40 h strictly below 20 µM?
FALSE

Record `COc1cnc(-c2ccc(CCNc3nc4cc(Cl)ccc4c(=O)n3C)cc2)nc1` : is its IC50 at 40 h strictly below 20 µM?
FALSE

Record `Cn1c(NCCc2ccc(-c3ccc(F)cn3)cc2)nc2cc(Cl)ccc2c1=O` : is its IC50 at 40 h strictly below 20 µM?
TRUE

Record `Cn1c(NCCc2ccc(-n3cccn3)cc2)nc2cc(Cl)ccc2c1=O` : is its IC50 at 40 h strictly below 20 µM?
TRUE

Record `Cn1c(NCCc2ccc(-c3ccccn3)cc2)nc2cc(Cl)ccc2c1=O` : is its IC50 at 40 h strictly below 20 µM?
TRUE

Record `Cn1c(NCCc2ccc(-c3ccc(F)cc3)cc2)nc2cc(N)ccc2c1=O` : is its IC50 at 40 h strictly below 20 µM?
FALSE

====

target: Cytochrome P450 3A4 (Homo sapiens)
Sequence (P08684 whole entry): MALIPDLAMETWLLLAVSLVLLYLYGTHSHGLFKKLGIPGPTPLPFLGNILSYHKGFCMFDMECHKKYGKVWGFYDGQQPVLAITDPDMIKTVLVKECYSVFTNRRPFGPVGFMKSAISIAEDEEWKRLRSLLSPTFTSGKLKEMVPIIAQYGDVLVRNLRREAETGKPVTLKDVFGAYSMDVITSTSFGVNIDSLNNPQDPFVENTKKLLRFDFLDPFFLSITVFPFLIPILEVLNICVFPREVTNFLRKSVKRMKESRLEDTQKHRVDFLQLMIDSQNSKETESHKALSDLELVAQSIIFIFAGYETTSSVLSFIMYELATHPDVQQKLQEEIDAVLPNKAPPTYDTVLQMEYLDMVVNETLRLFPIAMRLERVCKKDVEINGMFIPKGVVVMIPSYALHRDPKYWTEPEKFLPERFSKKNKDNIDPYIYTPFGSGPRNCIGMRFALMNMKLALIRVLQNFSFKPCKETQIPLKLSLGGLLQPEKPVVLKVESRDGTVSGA
protocolDescription: Inhibition of CYP3A4 in human liver microsomes assessed as 1'-hydroxymidazolam metabolite formation using midazolam as substrate incubated for 10 mins by HPLC-MS method
assayMetric: IC50 (µM)
Express the result in µM but write the number alone.

So, `Cn1c(NCCc2ccc(Oc3ccc(Cl)cc3)cc2)nc2cc(Cl)ccc2c1=O` ? Its IC50 was 14

So, `Cn1c(NCCc2ccc(N3CCOCC3)cc2)nc2cc(Cl)ccc2c1=O` ? Its IC50 was 11

So, `Cn1c(NCCc2ccccc2)nc2cc(Cl)ccc2c1=O` ? Its IC50 was 11

So, `COc1ccc(-c2ccc(CCNc3nc4cc(Cl)ccc4c(=O)n3C)cc2)cc1` ? Its IC50 was 8

====

protocolDescription: Lipophilicity, log P of compound
measurementParameters: octanol/water
assayMetric: logP
Number only, no unit.

So, `Cn1c(NCCc2ccccc2)nc2cc(Cl)ccc2c1=O` ? Its logP was 4.24

So, `COc1ccc(CCNc2nc3cc(N)ccc3c(=O)n2C)cc1` ? Its logP was 1.94

So, `COCCOc1ccc(CCNc2nc3cc(Cl)ccc3c(=O)n2C)cc1` ? Its logP was 3.86

So, `COc1ccc(CCNc2nc3cc(Cl)ccc3c(=O)n2C)nc1` ? Its logP was 3.32

So, `Cn1c(NCCc2ccc(-c3ccc(F)cc3)cn2)nc2cc(Cl)ccc2c1=O` ? Its logP was 4.23

So, `Cn1c(NCCc2ccc(Oc3ccc(Cl)cc3)cc2)nc2cc(Cl)ccc2c1=O` ? Its logP was 5.66

So, `COc1ccc(CCNc2nc3cc(OC)ccc3c(=O)n2C)cc1` ? Its logP was 3.1

So, `Cn1c(NCCc2ccc(-c3ncc(F)cn3)cc2)nc2cc(Cl)ccc2c1=O` ? Its logP was 4.46

So, `COc1ccc(-c2ccc(CCNc3nc4cc(Cl)ccc4c(=O)n3C)cc2)cn1` ? Its logP was 4.68

So, `COc1ccc(-c2ccc(CCNc3nc4cc(Cl)ccc4c(=O)n3C)cc2)nc1` ? Its logP was 4.67

So, `COc1ccc(-c2ccc(CCNc3nc4cc(Cl)ccc4c(=O)n3C)cc2)cc1` ? Its logP was 5.13

All values here come from ChEMBL document CHEMBL3853353.
